- Target under test: Human immunodeficiency virus type 1 reverse transcriptase (Human immunodeficiency virus 1, UniProt Q72547, L100I)
- Experimental protocol: Inhibitory concentration against mutant reverse transcriptase of L100I was determined which is in turn resistant TIBO
pIC50: −log10 of the molar value.
Param threshold (6) applies to pIC50; output true (1) when value >= threshold, false (0) when value < threshold.

Reference set (3 entries):
CCN1c2ncccc2C(=O)N(C)c2ccc(-c3ccc(N)cc3)nc21: true (1)
CCN1c2ncccc2C(=O)N(C)c2ccc(-c3ccc(N)nc3)nc21: true (1)
CCN1c2ncccc2C(=O)N(C)c2ccc(-c3ccc(O)cc3)nc21: true (1)

Is reported pIC50 greater than or equal to 6 here: CCN1c2ncccc2C(=O)N(C)c2ccc(-c3cn[nH]c3)nc21
false (0)

Confirm if pIC50 reported for the molecule CCN1c2ncccc2C(=O)N(C)c2ccc(-c3cc[nH]c3)nc21 is 6 or above.
true (1)

====

- Target under test: Human immunodeficiency virus type 1 reverse transcriptase (Human immunodeficiency virus 1, UniProt Q72547, P236L)
- Experimental protocol: Inhibitory concentration against mutant reverse transcriptase of P236L was determined which is in turn resistant to BHAP
Reported IC50 by item:
Supply the numeric figure in µM, leaving out any unit text.

CCN1c2ncccc2C(=O)N(C)c2ccc(-c3ccc(N)nc3)nc21: 0.04
CN1C(=O)c2cccnc2N(C2CC2)c2nc(-c3cn[nH]c3)ccc21: 0.34
CCN1c2ncccc2C(=O)N(C)c2ccc(-c3cc[nH]c3)nc21: 0.13
CCN1c2ncccc2C(=O)N(C)c2ccc(Cl)nc21: 0.02
CCN1c2ncccc2C(=O)N(C)c2ccc(-c3ccc(N)cc3)nc21: 0.26
CCN1c2ncccc2C(=O)N(C)c2ccc(-c3cn[nH]c3)nc21: 0.13

Next molecule, please.
Which IC50 is listed for CCN1c2ncccc2C(=O)N(C)c2ccc(-c3ccc(O)cc3)nc21 ?
0.001

====

Reported pIC50 values, Human immunodeficiency virus type 1 reverse transcriptase (Human immunodeficiency virus 1).
pIC50 field: float, defined as -log10 of concentration (mol/L).

Consider the worked cases shown below.
CCNc1ccc2c(n1)N(CC)c1ncccc1C(=O)N2C: 6.64
CCN1c2ncccc2C(=O)N(C)c2ccc(-c3cnco3)nc21: 6.96
CCN1c2ncccc2C(=O)N(C)c2ccc(-c3ccccn3)nc21: 6.74

# next compound below
Request - read-out pIC50 | tested on Human immunodeficiency virus type 1 reverse transcriptase (Human immunodeficiency virus 1) | compound CN1C(=O)c2cccnc2N(C2CC2)c2nc(-c3cccnc3)ccc21
6.74

====

- Target under test: Human immunodeficiency virus type 1 reverse transcriptase (Human immunodeficiency virus 1, UniProt Q72547, K103N)
- Experimental protocol: Inhibitory concentration against mutant reverse transcriptase of K103N was determined which is in turn resistant to pyridinones
Below, each entry is listed with its recorded IC50.
Give the quantity in nM, number only.

Below, each entry is followed by its recorded IC50 result.
CCN1c2ncccc2C(=O)N(C)c2ccc(-c3cn[nH]c3)nc21: 80
CCN1c2ncccc2C(=O)N(C)c2ccc(-c3ccc(O)cc3)nc21: 10
CCN1c2ncccc2C(=O)N(C)c2ccc(-c3cc[nH]c3)nc21: 50
CCN1c2ncccc2C(=O)N(C)c2ccc(-c3ccc(N)nc3)nc21: 410
CCN1c2ncccc2C(=O)N(C)c2ccc(-c3ccc(N)cc3)nc21: 260
CCN1c2ncccc2C(=O)N(C)c2ccc(Cl)nc21: 1100

# next compound below
I would be grateful if you could share the reported IC50 for CN1C(=O)c2cccnc2N(C2CC2)c2nc(-c3cn[nH]c3)ccc21 .
420

====

Below, each entry is listed with its recorded pIC50.
- Target under test: Human immunodeficiency virus type 1 reverse transcriptase (Human immunodeficiency virus 1, UniProt Q72547, Y181C)
- Experimental protocol: Inhibitory activity against HIV-1 Y181C Reverse transcriptase (RT)
pIC50: −log10 of the molar value.

Query (compound): CCN1c2ncccc2C(=O)Nc2c(C)cc(N(C)CCO)nc21 ; field requested: pIC50
< 6.00

Quick one: pIC50 for C/C=C/Nc1ccc2c(n1)N(CC)c1ncccc1C(=O)N2C ?
< 6.00

Recorded pIC50 for CCN1c2ncccc2C(=O)Nc2c(C)cc(SC)nc21 , please?
< 6.00

====

- Target under test: Human immunodeficiency virus type 1 reverse transcriptase (Human immunodeficiency virus 1, UniProt Q72547, Y181C)
- Experimental protocol: Inhibitory activity against HIV-1 Y181C Reverse transcriptase (RT)
pIC50: −log10 of the molar value.
pIC50 below 6 gives no; pIC50 at or above it gives yes.

CCN1c2ncccc2C(=O)N(C)c2ccc(=O)[nH]c21: no
CCN1c2ncccc2C(=O)Nc2c(C)cc(NCCCO)nc21: no
CCN1c2ncccc2C(=O)N(C)c2ccc(Cl)nc21: yes
CCN1c2ncccc2C(=O)Nc2c(C)cc(N3CCC(O)C3)nc21 (stereo not given): no
CCN1c2ncccc2C(=O)N(C)c2ccc(-c3cccs3)nc21: yes
CCN1c2ncccc2C(=O)Nc2c(C)cc(C)nc21: no
CCN1c2ncccc2C(=O)N(C)c2ccc(-c3ccc[nH]3)nc21: yes
CCN1c2ncccc2C(=O)Nc2c(C)cc(C(C)C)nc21: no

Please tell me: is the compound CCN1c2ncccc2C(=O)N(C)c2ccc(-c3ccsc3)nc21 at or over 6 in terms of pIC50?
yes

Could you please find out whether CCN1c2ncccc2C(=O)Nc2c(C)cc(N3CCSCC3)nc21 has pIC50 that meets 6 or exceeds it?
no

====

- Target under test: Human immunodeficiency virus type 1 reverse transcriptase (Human immunodeficiency virus 1)
Each entry below carries its reported IC50.
Numbers only here, please. The scale is nM.

CCN1c2ncccc2C(=O)N(C)c2ccc(-c3cnc[nH]3)nc21: 3700
CCN1c2ncccc2C(=O)N(C)c2ccc(Cl)nc21: 80
COc1ccc2c(n1)N(C1CC1)c1ncccc1C(=O)N2C: 120
CCN1c2ncccc2C(=O)N(C)c2ccc(-n3cccn3)nc21: 310
CCN1c2ncccc2C(=O)N(C)c2ccc(-c3ccc(OC)cc3)nc21: 1400

Enter reported IC50 observed with Human immunodeficiency virus type 1 reverse transcriptase (Human immunodeficiency virus 1) for CN1C(=O)c2cccnc2N(C2CC2)c2nc(-c3cn[nH]c3)ccc21
60

Find IC50 (Human immunodeficiency virus type 1 reverse transcriptase (Human immunodeficiency virus 1)) for the entry C/C=C/Nc1ccc2c(n1)N(CC)c1ncccc1C(=O)N2C
390

Query for Human immunodeficiency virus type 1 reverse transcriptase (Human immunodeficiency virus 1): what IC50 does the record show for CCN1c2ncccc2C(=O)N(C)c2ccc(-c3ccccc3)nc21 ?
230

What reported IC50 corresponds to CCN1c2ncccc2C(=O)N(C)c2ccc(-c3ncco3)nc21 on Human immunodeficiency virus type 1 reverse transcriptase (Human immunodeficiency virus 1)?
220

Return IC50 measured with Human immunodeficiency virus type 1 reverse transcriptase (Human immunodeficiency virus 1) given this compound: CCN1c2ncccc2C(=O)N(C)c2ccc(N3CCCC3)nc21
20

Notebook: pull reported IC50 for Human immunodeficiency virus type 1 reverse transcriptase (Human immunodeficiency virus 1), entry CCc1cc(C)c2c(n1)N(CC)c1ncccc1C(=O)N2
90

Hello, I am looking for reported IC50 with Human immunodeficiency virus type 1 reverse transcriptase (Human immunodeficiency virus 1) for CCN1c2ncccc2C(=O)Nc2c(C)cc(SC)nc21 . Could you help?
20

Hi! What's the reported IC50 for CCN1c2ncccc2C(=O)N(C)c2ccc(N(C)C)nc21 on Human immunodeficiency virus type 1 reverse transcriptase (Human immunodeficiency virus 1)?
70

What IC50 appears in the records for this compound with Human immunodeficiency virus type 1 reverse transcriptase (Human immunodeficiency virus 1)? CCN1c2ncccc2C(=O)N(C)c2ccc(-c3ccccc3OC)nc21
820

====

- Target under test: Human immunodeficiency virus type 1 reverse transcriptase (Human immunodeficiency virus 1, UniProt Q72547, Y181C)
- Experimental protocol: Inhibitory activity against HIV-1 Y181C Reverse transcriptase (RT)
Readout label: pIC50
Hey, just a heads up that pIC50 is the negative log base 10 of the concentration in molar.

// below: answered molecules
CN1C(=O)c2cccnc2N(C2CC2)c2nc(-c3cc[nH]c3)ccc21: 7.22
CCN1c2ncccc2C(=O)Nc2c(C)cc(Cl)nc21: 6.10
CCN1c2ncccc2C(=O)N(C)c2ccc(-c3cccc(N)c3)nc21: 6.25
CCN1c2ncccc2C(=O)N(C)c2ccc(-c3cc[nH]c3)nc21: 7.40
CN1C(=O)c2cccnc2N(C2CC2)c2nc(-c3ccncc3)ccc21: 6.49

Which pIC50 value is on record for CCN1c2ncccc2C(=O)N(C)c2ccc(C)nc21 ?
5.92

Data request, read-out pIC50, for CCN1c2ncccc2C(=O)Nc2c(C)cc(F)nc21
6.07

====

- Target under test: Human immunodeficiency virus type 1 reverse transcriptase (Human immunodeficiency virus 1, UniProt Q72547)
Measured pIC50 values are reported for all entries that follow.
Please express pIC50 as -log10 of the molar concentration.

CN1C(=O)c2cccnc2N(C2CC2)c2nc(-c3cc[nH]c3)ccc21: 7.30

Param item = CCN1c2ncccc2C(=O)N(C)c2ccc(-c3ccc(OC)nc3)nc21 ; retrieve measured pIC50.
5.92
